Data origin, for the record: PubChem BioAssay AID1963848

system: 379773-124-R-J2-PDC spheroid viability; test: Anticancer human tumor 379773-124-R-J2-PDC patient-derived endometrial carcinoma cell line growth inhibition [POLQ]; conditions: second compound 10 µM; first compound 0.1 µM; spheroids with HUVEC and MSC; active = viability on the fitted dose curve at most 10% of control; inactive = the rest;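 also: spheroids exposed to drugs for seven days before readout; percent viability relative to DMSO vehicle control taken as 100%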
Write down the outcome that applies. Available outcomes: yes (1) for active, no (0) for inactive

Inquiry: // return assay outcome for CC[C@@]1(O)C(=O)OCc2c1cc1n(c2=O)Cc2cc3c(CN(C)C)c(O)ccc3nc2-1 + Cc1cccc(N(C)C(=O)C2C(O)CCN2c2nc(C)cc(C(F)(F)F)c2C#N)c1
Reply text: no (0)

Inquiry: // return assay outcome for CC1COCCN1c1cc(C2(S(C)(=N)=O)CC2)nc(-c2ccnc3[nH]ccc23)n1 (stereo not given) + Cc1cccc(N(C)C(=O)C2C(O)CCN2c2nc(C)cc(C(F)(F)F)c2C#N)c1
Reply text: no (0)

Inquiry: // return assay outcome for CC1COCCN1c1cc(C2(O)CC3CCC(C2)O3)c2cnn(-c3ccn[nH]3)c2n1 (stereo not given) + Nc1ccc(C#CCN(C(=O)Cc2ncc(C(F)(F)F)cc2C(F)(F)F)c2ccc(F)cc2)nn1
Reply text: no (0)

Inquiry: // return assay outcome for CC[C@@]1(O)C(=O)OCc2c1cc1n(c2=O)Cc2cc3c(CN(C)C)c(O)ccc3nc2-1 + COC1C(OC(N)=O)C(O)C(Oc2ccc3c(O)c(NC(=O)c4ccc(O)c(CC=C(C)C)c4)c(=O)oc3c2C)OC1(C)C
Reply text: no (0)

Inquiry: // return assay outcome for O=C(Nc1ccc(O)c(NS(=O)(=O)c2ccc(F)cc2)c1)c1ccc(-c2ccccc2)cc1 + Nc1ccc(C#CCN(C(=O)Cc2ncc(C(F)(F)F)cc2C(F)(F)F)c2ccc(F)cc2)nn1
Reply text: no (0)

Inquiry: // return assay outcome for C=CCn1c(=O)c2cnc(Nc3ccc(N4CCN(C)CC4)cc3)nc2n1-c1cccc(C(C)(C)O)n1 + COC1C(OC(N)=O)C(O)C(Oc2ccc3c(O)c(NC(=O)c4ccc(O)c(CC=C(C)C)c4)c(=O)oc3c2C)OC1(C)C
Reply text: no (0)

Inquiry: // return assay outcome for CCc1cc2c(N3CCc4c(cc(Cn5ccnc5)cc4-c4cn(C)nc4C(F)(F)F)C3=O)ccnc2c(OC)n1 + Cc1cccc(N(C)C(=O)C2C(O)CCN2c2nc(C)cc(C(F)(F)F)c2C#N)c1
Reply text: no (0)

Inquiry: // return assay outcome for COc1ccc([C@@H](O)c2cc(-c3ncnc4cc(N5CCOCC5)ccc34)c(F)cc2Cl)nn1 + COC1C(OC(N)=O)C(O)C(Oc2ccc3c(O)c(NC(=O)c4ccc(O)c(CC=C(C)C)c4)c(=O)oc3c2C)OC1(C)C
Reply text: no (0)

Inquiry: // return assay outcome for CC1COCCN1c1cc(C2(S(C)(=N)=O)CC2)nc(-c2ccnc3[nH]ccc23)n1 (stereo not given) + COC1C(OC(N)=O)C(O)C(Oc2ccc3c(O)c(NC(=O)c4ccc(O)c(CC=C(C)C)c4)c(=O)oc3c2C)OC1(C)C
Reply text: no (0)

Inquiry: // return assay outcome for Nc1ccn(C2OC(CO)C(O)C2(F)F)c(=O)n1 (stereo not given) + COC1C(OC(N)=O)C(O)C(Oc2ccc3c(O)c(NC(=O)c4ccc(O)c(CC=C(C)C)c4)c(=O)oc3c2C)OC1(C)C
Reply text: yes (1)

Inquiry: // return assay outcome for COc1cc(C2c3cc4c(cc3C(OC3OC5COC(C)OC5C(O)C3O)C3COC(=O)C23)OCO4)cc(OC)c1O (stereo not given) + Cc1cccc(N(C)C(=O)C2C(O)CCN2c2nc(C)cc(C(F)(F)F)c2C#N)c1
Reply text: no (0)

Inquiry: // return assay outcome for CCCS(=O)(=O)Nc1ccc(F)c(C(=O)c2c[nH]c3ncc(-c4ccc(Cl)cc4)cc23)c1F + Cc1cccc(N(C)C(=O)C2C(O)CCN2c2nc(C)cc(C(F)(F)F)c2C#N)c1
Reply text: no (0)

Inquiry: // return assay outcome for O=C(c1cc(Cc2n[nH]c(=O)c3ccccc23)ccc1F)N1CCN(C(=O)C2CC2)CC1 + Nc1ccc(C#CCN(C(=O)Cc2ncc(C(F)(F)F)cc2C(F)(F)F)c2ccc(F)cc2)nn1
Reply text: no (0)

Inquiry: // return assay outcome for CC1COCCN1c1cc(C2(O)CC3CCC(C2)O3)c2cnn(-c3ccn[nH]3)c2n1 (stereo not given) + Cc1cccc(N(C)C(=O)C2C(O)CCN2c2nc(C)cc(C(F)(F)F)c2C#N)c1
Reply text: no (0)

Inquiry: // return assay outcome for COc1cccc(OCCCN)c1-c1cc(Nc2cnc(C#N)cn2)n[nH]1 + COC1C(OC(N)=O)C(O)C(Oc2ccc3c(O)c(NC(=O)c4ccc(O)c(CC=C(C)C)c4)c(=O)oc3c2C)OC1(C)C
Reply text: yes (1)

Inquiry: // return assay outcome for CCCS(=O)(=O)Nc1ccc(F)c(C(=O)c2c[nH]c3ncc(-c4ccc(Cl)cc4)cc23)c1F + Nc1ccc(C#CCN(C(=O)Cc2ncc(C(F)(F)F)cc2C(F)(F)F)c2ccc(F)cc2)nn1
Reply text: no (0)

Inquiry: // return assay outcome for C=CC(=O)N1CCN(c2nc(=O)n(-c3c(C)ccnc3C(C)C)c3nc(-c4c(O)cccc4F)c(F)cc23)C(C)C1 (stereo not given) + Cc1cccc(N(C)C(=O)C2C(O)CCN2c2nc(C)cc(C(F)(F)F)c2C#N)c1
Reply text: no (0)

Inquiry: // return assay outcome for C#Cc1c(F)ccc2cc(O)cc(-c3ncc4c(N5CC6CCC(C5)N6)nc(OCC56CCCN5CC(F)C6)nc4c3F)c12 (stereo not given) + Nc1ccc(C#CCN(C(=O)Cc2ncc(C(F)(F)F)cc2C(F)(F)F)c2ccc(F)cc2)nn1
Reply text: no (0)

Inquiry: // return assay outcome for CCc1cc2c(N3CCc4c(cc(Cn5ccnc5)cc4-c4cn(C)nc4C(F)(F)F)C3=O)ccnc2c(OC)n1 + Nc1ccc(C#CCN(C(=O)Cc2ncc(C(F)(F)F)cc2C(F)(F)F)c2ccc(F)cc2)nn1
Reply text: no (0)

Inquiry: // return assay outcome for O=C(c1cc(Cc2n[nH]c(=O)c3ccccc23)ccc1F)N1CCN(C(=O)C2CC2)CC1 + COC1C(OC(N)=O)C(O)C(Oc2ccc3c(O)c(NC(=O)c4ccc(O)c(CC=C(C)C)c4)c(=O)oc3c2C)OC1(C)C
Reply text: no (0)
